System: GENE-TOX genotoxicity assays, various organisms and cells
protocol: GENE-TOX mutagenicity studies
conditions: Species/Cell Type: Escherichia coli polA (W3119 vs P3478); Assay Type: Rec-assay, DNA effects (bacterial DNA repair); Assay Code: RE1T; Evaluation Type: Evaluation A (Pre-1980)
quantity: mutagenic call

Examples with answers:
>>> result("CCN(CC)CCOC(=O)c1ccc(N)cc1")
"no conclusion"
>>> result("CCOC(=O)CC(SP(=S)(OC)OC)C(=O)OCC (stereo unspecified)")
"no conclusion"
>>> result("CC(C)CBr")
"no conclusion"
>>> result("c1ccc2c(c1)ccc1ccccc12")
"no conclusion"

Would you be so kind as to report mutagenic call for each listed record?
1. Oc1ccc2ccc3c4ccccc4cc4ccc1c2c43
2. Nc1ccc(N=Nc2ccccc2)cc1
3. CCCN(CCC)c1c([N+](=O)[O-])cc(C(F)(F)F)cc1[N+](=O)[O-]
4. COc1ccc(C(c2ccc(OC)cc2)C(Cl)(Cl)Cl)cc1
5. CN(CCCCC(=O)OC[C@H](N)C(=O)O)N=O
6. CC(=O)Nc1ccc2c(c1)Cc1cc(O)ccc1-2
7. C[N+](C)(C)CCO

Solution:
1. no conclusion
2. no conclusion
3. no conclusion
4. no conclusion
5. no conclusion
6. no conclusion
7. no conclusion

Would you be so kind as to report mutagenic call for each listed record?
1. COc1cc2c(c3oc(=O)c4c(c13)CCC4=O)[C@@H]1CCO[C@@H]1O2
2. NC1(C(=O)O)CCCC1
3. Nc1ccc(C(=O)O)c(O)c1
4. O=[N+]([O-])c1cccc([N+](=O)[O-])c1Cl
5. OC(c1ccccc1)C(c1ccccc1)c1ccccc1 (stereo unspecified)
6. CC/C(=C(/CC)c1ccc(O)cc1)c1ccc(O)cc1
7. NC(N)=S
8. NC(N)=O

Solution:
["no conclusion", "no conclusion", "no conclusion", "no conclusion", "no conclusion", "no conclusion", "no conclusion", "no conclusion"]

Would you be so kind as to report mutagenic call for each listed record?
1. CCCCN(C)N=O
2. CNC(=O)Oc1cccc2c1OC(C)(C)C2
3. COc1cc(-c2ccc(N)c(OC)c2)ccc1N
4. CCOP(=S)(OCC)SCCSCC
5. CCCCCCCCCCCCCC(=O)O[C@@H]1[C@@H](C)[C@@]2(O)[C@@H](C=C(CO)C[C@]3(O)C(=O)C(C)=C[C@@H]23)[C@@H]2C(C)(C)[C@]12OC(C)=O
6. NCCS

Solution:
no conclusion
no conclusion
no conclusion
no conclusion
no conclusion
no conclusion

* * *

Test system: GENE-TOX genotoxicity assays, various organisms and cells
protocol: GENE-TOX mutagenicity studies
conditions: Species/Cell Type: Human diploid fibroblasts; Assay Type: Unscheduled DNA synthesis (UDS) in vitro, DNA effects; Assay Code: UDH-; Evaluation Type: Evaluation A (Pre-1980)
Active and inactive are the calls of the source. How the calls were made is not given here.
quantity: mutagenic call

Examples with answers:
>>> result("CCNc1nc(Cl)nc(NCC)n1")
"inactive; negative"
>>> result("CC(C)=CC1C(C(=O)OCc2coc(Cc3ccccc3)c2)C1(C)C (configuration not stated)")
"inactive; negative"
>>> result("CCSCC[C@H](N)C(=O)O")
"inactive; negative"
>>> result("CCOP(=S)(OCC)SCSCC")
"inactive; negative"
>>> result("CC(C)=CC1C(C(=O)OCc2cccc(Oc3ccccc3)c2)C1(C)C (configuration not stated)")
"inactive; negative"
>>> result("Nc1ncn[nH]1")
"inactive; negative"
>>> result("O=[N+]([O-])c1ccc2c(ccc[n+]2[O-])c1")
"inactive; negative"
>>> result("CC1(C)C(C=C(Cl)Cl)C1C(=O)OCc1cccc(Oc2ccccc2)c1 (configuration not stated)")
"inactive; negative"

Would you be so kind as to report mutagenic call for each listed record?
1. CCOP(=S)(OCC)SCSP(=S)(OCC)OCC
2. C=CCC1=C(C)C(OC(=O)[C@@H]2[C@@H](C=C(C)C)C2(C)C)CC1=O (some centres not stated)

Solution:
1. inactive; negative
2. inactive; negative

Would you be so kind as to report mutagenic call for each listed record?
1. CC(=O)Nc1ccc2c(c1)Cc1cc(O)ccc1-2
2. CC1(C)C(C=C(Cl)Cl)C1C(=O)OC(C#N)c1cccc(Oc2ccccc2)c1 (configuration not stated)

Solution:
1. inactive; negative
2. inactive; negative

Would you be so kind as to report mutagenic call for each listed record?
1. Nc1ccc(-c2ccccc2)cc1
2. O=C1c2ccccc2C(=O)N1SC(Cl)(Cl)Cl
3. CCCCN(N=O)C(N)=O

Solution:
1: inactive; negative; 2: inactive; negative; 3: inactive; negative

meta.source: PubChem BioAssay AID1259408
